Listing: logD of selected compounds
assay: Octanol-water partition coefficient, log D of the compound at pH 7.4; format: physicochemical
endpoint: logD

compound=CN1CC2CCC1([C@H](NC(=O)c1c(Cl)cccc1Cl)c1ccccc1)CC2 data_value=1.9
compound="CN1CC2CCC1(C(NC(=O)c1cccc(C(F)(F)F)c1Cl)c1ccncc1)CC2 (racemic)" data_value=2.4
compound=CN1CC2CCC1([C@H](NC(=O)c1cccc(C(F)(F)F)c1Cl)c1ccccc1)CC2 data_value=2.7
compound="CCN1CC2CC1(C(NC(=O)c1c(C)cccc1C)c1ccccc1)C2 (stereo not drawn)" data_value=1.1
compound="CN1CC2CCC1(C(NC(=O)c1cccc(C(F)(F)F)c1Cl)c1ccco1)CC2 (racemic)" data_value=2
compound="Cc1ccc(C(NC(=O)c2c(C)cccc2C)C23CCC(CC2)CN3C)o1 (stereo not drawn)" data_value=1.5
compound=CN1CC2CCC1([C@H](NC(=O)c1c(N)cccc1Cl)c1ccccc1)CC2 data_value=1.3
compound=CN1CC2CCC1([C@H](NC(=O)c1ccnc(Cl)c1Cl)c1ccccc1)CC2 data_value=2.2
compound=CSc1ncccc1C(=O)N[C@H](c1ccccc1)C12CCC(CC1)CN2C data_value=1.3
compound=CN1CC2CCC1([C@H](NC(=O)c1c(Cl)cncc1Cl)c1ccccc1)CC2 data_value=1.4
compound="Cc1cccc(C)c1C(=O)NC(c1ccccc1)C12CCC(CC1)N2 (stereo not drawn)" data_value=1.4
compound=CN1CC2CCC1([C@H](NC(=O)c1ccnc(C(F)(F)F)c1F)c1ccccc1)CC2 data_value=2.4
compound=CN1CC2CCC1([C@@H](NC(=O)c1cccc(C(F)(F)F)c1Cl)c1ccccc1)CC2 data_value=2.7
compound="CN1CC2CCC1(C(NC(=O)c1cccc(C(F)(F)F)c1Cl)c1cccc(Br)c1)CC2 (racemic)" data_value=3.3
compound="Cc1cccc(C)c1C(=O)NC(c1ccccc1)C12CC(CN1C)C2 (stereo not drawn)" data_value=1.1
compound=CN1CC2CCC1([C@H](NC(=O)c1c(Cl)ccnc1Cl)c1ccccc1)CC2 data_value=1.1
compound="Cc1cccc(C)c1C(=O)NC(c1ccc(S(=O)(=O)CC2CC2)cc1)C12CCC(CC1)CN2C (stereo not drawn)" data_value=2
compound="Cc1cccc(C)c1C(=O)NC(c1ccccc1)C12CCC(CC1)N2C1CC1 (stereo not drawn)" data_value=1.1
compound="Cc1cccc(C(NC(=O)c2cccc(C(F)(F)F)c2Cl)C23CCC(CC2)CN3C)c1 (racemic)" data_value=3
compound="CN1CC2CCC1(C(NC(=O)c1cccc(C(F)(F)F)c1Cl)c1ccccn1)CC2 (racemic)" data_value=1.6
compound=CN1CCCC[C@H]1[C@@H](NC(=O)c1cccc(C(F)(F)F)c1Cl)c1ccccc1 data_value=2.9
compound="Cc1cccc(C)c1C(=O)NC(c1ccncc1)C12CCC(CC1)CN2C (stereo not drawn)" data_value=1.4
compound="Cc1ccccc1C(NC(=O)c1cccc(C(F)(F)F)c1Cl)C12CCC(CC1)CN2C (racemic)" data_value=3
compound="Cc1cccc(C)c1C(=O)NC(c1ccccc1)C12CCC(CC1)CN2 (stereo not drawn)" data_value=1.3
compound="Cc1cccc(C)c1C(=O)NC(c1ccccc1)C12CCC(CC1)N2C(C)C (stereo not drawn)" data_value=1.9
compound=COc1cccc(OC)c1C(=O)N[C@H](c1ccccc1)C12CCC(CC1)CN2C data_value=0.7
compound=Cc1ccnc(C)c1C(=O)N[C@H](c1ccccc1)C12CCC(CC1)CN2C data_value=0.8
compound="Cc1cccc(C)c1C(=O)NC(c1ccncc1)C12CCC(CC1)N2 (stereo not drawn)" data_value=0.9
compound="COc1ccc(C(NC(=O)c2cccc(C(F)(F)F)c2Cl)C23CCC(CC2)CN3C)cc1 (racemic)" data_value=2.7
compound="CCN1C2CCC1(C(NC(=O)c1c(C)cccc1C)c1ccccc1)CC2 (stereo not drawn)" data_value=2.1
compound="Cc1cccc(C)c1C(=O)NC(c1ccccc1)C12CCC(CC1)N2C (stereo not drawn)" data_value=1.9
compound=CN1CC2CCC1([C@H](NC(=O)c1cccc(Cl)c1Cl)c1ccccc1)CC2 data_value=2.2
compound="CN1CC2CCC1(C(NC(=O)c1cccc(C(F)(F)F)c1Cl)c1ccccc1)CC2 (racemic)" data_value=2.7
